# System: db/db mice
# methodDescription: Study for glucose lowering effect in db/db mouse
# Assay type: in vivo
# conditionNotes: Mus musculus, oral, 0.3 mg/kg, 6 hours, relative to control group, Table 3-2, read-out: Percent reduction of blood glucose (%) 6 hours after administration
Answer n if inhibition in vivo at 0.3 mg/kg is under 50%, and y if it is 50% or more.

compound="OC[C@H]1O[C@]2(OCc3cc(Cl)c(Cc4ccc(CCF)cc4)cc32)[C@H](O)[C@@H](O)[C@@H]1O [Example 8]" assignedlabel=n
compound="CCCc1ccc(Cc2cc3c(cc2Cl)CO[C@]32O[C@H](CO)[C@@H](O)[C@H](O)[C@H]2O)cc1 [Example 9]" assignedlabel=n
compound="CCOc1ccc(Cc2cc3c(cc2Cl)CO[C@]32O[C@H](CO)[C@@H](O)[C@H](O)[C@H]2O)cc1 [Example 5]" assignedlabel=y
compound="CCc1ccc(Cc2cc3c(cc2Cl)CO[C@]32O[C@H](CO)[C@@H](O)[C@H](O)[C@H]2O)cc1 [Example 1]" assignedlabel=n
compound="OC[C@H]1O[C@]2(OCc3cc(Cl)c(Cc4ccc5ccccc5c4)cc32)[C@H](O)[C@@H](O)[C@@H]1O [Example 7]" assignedlabel=y
